biological target: UniProt:Q96RI0; experiment: FLIPR assay in PAR4-expressing HEK293 cells (PAR4 antagonist activity, calcium mobilization); format: cell-based; details: H-Ala-Phe(4-F)-Pro-Gly-Trp-Leu-Val-Lys-Asn-Gly-NH2-induced calcium mobilization
pEC50: −log10 of the molar value.
Readout Kind: pEC50

1. COCCC(C)(F)c1nc(COc2cc(OC)cc3oc(-c4cn5nc(OC)sc5n4)cc23)cs1 (stereo not shown)
9.02

I: COc1cc(OCc2csc(C(O)(C3CC3)C3CC3)n2)c2cc(-c3cn4nc(OC)sc4n3)oc2c1
II: COc1cc(OCc2csc(C3CCN(S(=O)(=O)C(F)(F)F)CC3)n2)c2cc(-c3cn4nc(OC)sc4n3)oc2c1
III: COc1cc(OCc2nc(-c3ccccc3)sc2Cl)c2cc(-c3cn4nc(OC)sc4n3)oc2c1
// ranking: key=pEC50, reverse=True Labels, requested order.
I, II, III
(I: 9.59, II: 9.31, III: 8.96)

* * *

Some compounds, each annotated with its measured IC50.
target: PAR4 (Homo sapiens (Human), UniProt Q96RI0); experiment: Gamma thrombin induced platelet aggregation assay (PRP assay); settings: human platelet rich plasma, 96-well microplate
Sequence (Q96RI0 18-385): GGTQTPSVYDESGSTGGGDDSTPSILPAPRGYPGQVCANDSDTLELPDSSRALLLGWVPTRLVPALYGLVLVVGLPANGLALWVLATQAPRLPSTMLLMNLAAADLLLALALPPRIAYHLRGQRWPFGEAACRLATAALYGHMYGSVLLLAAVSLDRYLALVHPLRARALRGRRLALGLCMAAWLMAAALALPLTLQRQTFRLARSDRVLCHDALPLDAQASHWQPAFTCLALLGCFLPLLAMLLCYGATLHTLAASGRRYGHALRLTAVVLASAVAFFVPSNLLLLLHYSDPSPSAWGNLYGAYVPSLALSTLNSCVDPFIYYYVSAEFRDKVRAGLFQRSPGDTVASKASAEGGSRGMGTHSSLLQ
Please respond with the number in nM and leave the unit unwritten.

Observe how each entry below is paired with its result.
1. COCCOCc1nc(COc2cc(OC)cc3oc(-c4cn5nc(OC)sc5n4)cc23)cs1 [Example 6]
2030
2. COc1cc(OCc2nc(-c3ccc(C(=O)N(C)CC#N)cc3)sc2C)c2cc(-c3cn4nc(OC)sc4n3)oc2c1 [Example 48]
1.2
3. COc1cc(OCc2csc(C3(O)CC(C)OC(C)C3)n2)c2cc(-c3cn4nc(OC)sc4n3)oc2c1 (centres unmarked) [Example 121]
27
4. COc1cc(OCc2csc(C(O)(c3ccc(Cl)cc3)C(F)(F)F)n2)c2cc(-c3cn4nc(OC)sc4n3)oc2c1 (centres unmarked) [Example 145]
29
5. COc1cc(OCc2csc(-c3ccccc3)n2)c2cc(-c3cn4nc([C@H](C)F)sc4n3)oc2c1 [Example 192]
28
6. COc1cc(OCc2csc(-c3ccc(F)nc3)n2)c2cc(-c3cn4nc(OC)sc4n3)oc2c1 [Example 73]
1.9

# get_value(readout= IC50, system= PAR4 (Homo sapiens (Human), UniProt Q96RI0)) for COc1cc(OCc2csc(-c3ccccc3)n2)c2nc(-c3cn4nc(SC)sc4n3)oc2c1 [Example 201]
156

# get_value(readout= IC50, system= PAR4 (Homo sapiens (Human), UniProt Q96RI0)) for COc1cc(OCc2csc(C(O)(c3ccccc3)C(F)(F)F)n2)c2cc(-c3cn4nc(OC)sc4n3)oc2c1 (centres unmarked) [Example 137]
23

# get_value(readout= IC50, system= PAR4 (Homo sapiens (Human), UniProt Q96RI0)) for COc1cc(OCc2csc(C3(O)CCOCC3)n2)c2cc(-c3cn4nc(OC)sc4n3)oc2c1 [Example 118]
25

# get_value(readout= IC50, system= PAR4 (Homo sapiens (Human), UniProt Q96RI0)) for COc1cc(OCc2csc(C3(O)CCC(C(=O)N4CCCC4)CC3)n2)c2cc(-c3cn4nc(OC)sc4n3)oc2c1 (centres unmarked) [Example 151]
26

# get_value(readout= IC50, system= PAR4 (Homo sapiens (Human), UniProt Q96RI0)) for COc1cc(OCc2csc(Br)n2)c2cc(-c3cn4nc(C)ccc4n3)oc2c1 [Example 205]
2380

# get_value(readout= IC50, system= PAR4 (Homo sapiens (Human), UniProt Q96RI0)) for COc1cc(OCc2cscn2)c2cc(-c3cn4nc(OC)sc4n3)oc2c1 [Example 34]
2320

# get_value(readout= IC50, system= PAR4 (Homo sapiens (Human), UniProt Q96RI0)) for COc1cc(OCc2nc(-c3cccc(CO)c3)sc2C)c2cc(-c3cn4nc(OC)sc4n3)oc2c1 [Example 77]
1.9

# get_value(readout= IC50, system= PAR4 (Homo sapiens (Human), UniProt Q96RI0)) for COc1cc(OCc2csc(-c3ccc4c(c3)OCO4)n2)c2cc(-c3cn4nc(C)ccc4n3)oc2c1 [Example 219]
25

* * *

molecular target: PAR4 (Homo sapiens (Human), UniProt Q96RI0); assay: FLIPR assay in PAR4-expressing HEK293 cells (PAR4 antagonist activity, calcium mobilization); format: cell-based; conditions: H-Ala-Phe(4-F)-Pro-Gly-Trp-Leu-Val-Lys-Asn-Gly-NH2-induced calcium mobilization
Readout Kind: EC50 (nM)

P: COc1cccc(Nc2nc(COc3cc(OC)cc4oc(-c5cn6nc(C)ccc6n5)cc34)cs2)c1 [Example 283]
Q: COc1nn2cc(-c3cc4c(OCc5csc(-c6ccc(C(=O)N(C)C(C)(C)C)cc6)n5)cc(F)cc4o3)nc2s1 [Example 182]
R: COc1cc(OCc2csc(C3(c4ccc(C)cc4)CCOCC3)n2)c2cc(-c3cn4nc(C)ccc4n3)oc2c1 [Example 242]
Please give the order of these compounds when sorted by EC50, largest value leading. Labels, requested order.
P, R, Q
(P: 2.9 nM, R: 0.59 nM, Q: 0.3 nM)

I: COc1cc(OCc2csc(C3(C)CCOCC3)n2)c2cc(-c3cn4nc(OC)sc4n3)oc2c1 [Example 167]
II: COc1cc(OCc2csc(CCC3CC3)n2)c2cc(-c3cn4nc(OC)sc4n3)oc2c1 [Example 60]
Please state the entry with greater EC50 among I and II . Identify your pick by its label.
II
(II: 0.38 nM, I: 0.26 nM)

* * *

Molecular target: PAR4 (Homo sapiens (Human))
Assay: FLIPR assay in PAR4-expressing HEK293 cells (PAR4 antagonist activity, calcium mobilization)
Type: cell-based
Details: H-Ala-Phe(4-F)-Pro-Gly-Trp-Leu-Val-Lys-Asn-Gly-NH2-induced calcium mobilization
Source text: The FLIPR assay is an exemplary in vitro assay for measuring the activity of the PAR4 antagonists of the present invention. In this assay, intracellular calcium mobilization is induced in PAR4 expressing cells by a PAR4 agonist and calcium mobilization is monitored. See, e.g., Example A. […]
Readout Kind: EC50 (nM)

1) COc1cc(OCc2nc(-c3ccnc(F)c3)sc2C(C)C)c2cc(-c3cn4nc(OC)sc4n3)oc2c1 [Example 43]
0.34
2) COc1cc(OCc2csc(-c3ccc(C(=O)NC(C)(C)C)cc3)n2)c2cc(-c3cn4nc(OC)sc4n3)oc2c1 [Example 41]
0.9

1: CCN(C(=O)c1ccc(-c2nc(COc3cc(OC)cc4oc(-c5cn6nc(OC)sc6n5)cc34)cs2)cc1)C(C)C [Example 287]
2: COc1cc(OCc2nc(N3CCOCC3)sc2C(C)(C)O)c2cc(-c3cn4nc(OC)sc4n3)oc2c1 [Example 91]
Input pair: 1 , 2 . Output: entry with lower EC50. Identify your pick by its label.
2
(2: 0.27 nM, 1: 0.48 nM)

* * *

biological target: PAR4 (Homo sapiens (Human), UniProt Q96RI0); experiment: FLIPR assay in PAR4-expressing HEK293 cells (PAR4 antagonist activity, calcium mobilization); type: cell-based; settings: H-Ala-Phe(4-F)-Pro-Gly-Trp-Leu-Val-Lys-Asn-Gly-NH2-induced calcium mobilization
pEC50: −log10 of the molar value.
Readout Kind: pEC50

Observe how each entry below is paired with its result.
1. COc1cc(OCc2csc(-c3cccc(OC(C)=O)c3)n2)c2cc(-c3cn4nc(OC)sc4n3)oc2c1
9.32
2. COc1cc(OCc2csc(-c3ccccc3OC)n2)c2cc(-c3cn4nc(OC)sc4n3)oc2c1
9.00

P: COc1cc(OCc2csc(C(C)(C)c3ccc(Cl)cc3)n2)c2cc(-c3cn4nc(OC)sc4n3)oc2c1
Q: COc1cc(OCc2csc(-c3ccc(C(=O)N(C)C(C)C)cc3)n2)c2cc(-c3cn4nc(OC)sc4n3)oc2c1
Please state the entry with greater pEC50 among P and Q . Identify your pick by its label.
Q

* * *

molecular target: PAR4 (Homo sapiens (Human), UniProt Q96RI0); assay: FLIPR assay in PAR4-expressing HEK293 cells (PAR4 antagonist activity, calcium mobilization); format: cell-based; settings: H-Ala-Phe(4-F)-Pro-Gly-Trp-Leu-Val-Lys-Asn-Gly-NH2-induced calcium mobilization
pEC50: −log10 of the molar value.
Readout Kind: pEC50

Observe how each entry below is paired with its result.
1. COc1cc(OCc2nc(C3(O)CCOCC3)sc2C)c2cc(-c3cn4nc([C@H](C)F)sc4n3)oc2c1
9.29
2. COc1cc(OCc2nc(-c3cccc(COC(C)=O)c3)sc2C)c2cc(-c3cn4nc(C)ccc4n3)oc2c1
9.12
3. COc1cc(OCc2csc(C3(O)CCC(C(=O)N4CCCC4)CC3)n2)c2cc(-c3cn4nc(OC)sc4n3)oc2c1 (stereo not shown)
9.08

A: COc1cc(OCc2nc(-c3ccc(C(=O)N(C)C)cc3)sc2C)c2cc(-c3cn4nc(C)ccc4n3)oc2c1
B: COc1cc(OCc2csc(C3(NS(=O)(=O)C(C)(C)C)CCOCC3)n2)c2cc(-c3cn4nc(OC)sc4n3)oc2c1
Please state the entry with greater pEC50 among A and B . Identify your pick by its label.
B
